Molecular target: Mycobacterium tuberculosis BioA (adenosylmethionine-8-amino-7-oxononanoate aminotransferase)
Test: inhibition of M. tuberculosis BioA aminotransferase – biochemical, plate reader, dry powder samples, dose response (AID 720590)
Conditions: M. tuberculosis BioA enzyme assay, at 10 µM (top of the series)
Active and inactive are the calls of the source. How the calls were made is not given here.
Reported metric: activity change, negative = inhibition

Smiles record	Meas value
Cc1nc2cc(NC(=O)N3CCN(c4ccccc4)CC3)ccc2o1	inactive
O=C(Nc1cccnc1)c1cnn2c(C(F)(F)F)cc(-c3ccccc3)nc12	inactive
Cc1ccc(NC(=O)N2CCN(c3ccccc3)CC2)cc1	inactive
Cc1nc2ccc(NC(=O)N3CCN(c4ccccc4)CC3)cc2s1	inactive
O=C(c1ccc2c(c1)OCO2)N1CCN(c2ccc(F)cc2)CC1	inactive

Look at this molecule and give its reported activity change, negative = inhibition. O=C(Nc1ccc(Cl)cc1)c1cc2nc(C3CC3)cc(C(F)(F)F)n2n1
inactive

----------
Biological target: Mycobacterium tuberculosis BioA (adenosylmethionine-8-amino-7-oxononanoate aminotransferase)
Assay: inhibition of M. tuberculosis BioA aminotransferase – biochemical, plate reader, dry powder samples, dose response (AID 720590)
Conditions: M. tuberculosis BioA enzyme assay
Active and inactive are the calls of the source. How the calls were made is not given here.
Please answer using one outcome listed in YES = active, NO = inactive

Completed entries (count: 3):
Smiles record	Answer label
CC(C)(C)c1ccc(C(=O)N2CCN(c3ccc4c(c3)OCO4)CC2)cc1	NO
O=C(c1ccc2c(c1)OCO2)N1CCN(Cc2ccccc2)CC1	NO
COc1ccc(N2CCN(C(=O)c3ccc4c(c3)OCO4)CC2)cc1	YES

# outcome recorded in this test, key = CCc1ccc(C(=O)N2CCN(Cc3ccc4c(c3)OCO4)CC2)cc1
NO

Check O=C(Nc1ccc2snnc2c1)N1CCCCC1 too.
YES

----------
Target: Mycobacterium tuberculosis BioA (adenosylmethionine-8-amino-7-oxononanoate aminotransferase)
Test: inhibition of M. tuberculosis BioA aminotransferase – biochemical, plate reader, dry powder samples, dose response (AID 720590)
Conditions: M. tuberculosis BioA enzyme assay
Kindly state AC50 for each of the entries shown.

Consider the reported AC50 for these compounds:
Smiles record	AC50
O=C(Nc1ccc(F)cc1)N1CCN(c2ccccc2)CC1	6.63 µM
O=C(Nc1ccc(Cl)c(-c2nc3ccccc3[nH]2)c1)c1cccnc1	0.181 µM
O=C(Nc1ccc2snnc2c1)N1CCOCC1	0.896 µM
O=C(Nc1ccc2snnc2c1)N1CCN(c2ccccc2)CC1	< 0.08 µM
COc1cccc(NC(=O)CCC2CCN(C(=O)c3ccc(C(C)=O)s3)CC2)c1	0.225 µM

Now, please, on to the next compound.
Fill in: AC50 of CCOC(=O)N1CCN(C(=O)Nc2ccc3snnc3c2)CC1 is ___
0.424 µM

----------
Biological target: Mycobacterium tuberculosis BioA (adenosylmethionine-8-amino-7-oxononanoate aminotransferase)
Assay: inhibition of M. tuberculosis BioA aminotransferase – biochemical, plate reader, dry powder samples, dose response (AID 720590); call rule not given here
Conditions: M. tuberculosis BioA enzyme assay
Can you answer with just one of these options? 1 (yes) = active, 0 (no) = inactive

// return assay outcome for CC(=O)c1ccc(N2CCN(C(=O)c3ccc4ncsc4c3)CC2)cc1
1 (yes)

----------
Target: Mycobacterium tuberculosis BioA (adenosylmethionine-8-amino-7-oxononanoate aminotransferase)
Test: inhibition of M. tuberculosis BioA aminotransferase – biochemical, plate reader, dry powder samples, dose response (AID 720590)
Settings: M. tuberculosis BioA enzyme assay
Exercise: state measured AC50 for each of the compounds provided.

Completed entries (count: 5):
Smiles record	AC50
CC(=O)c1ccc(N2CCN(C(=O)c3ccc4c(c3)OCO4)CC2)cc1	< 80 nM
CC(=O)c1ccc(N2CCN(C(=O)c3cccc(Cl)c3)CC2)cc1	95.5 nM
CC(=O)c1ccc(N2CCN(C(=O)c3ccc(Br)cc3)CC2)c(F)c1	< 80 nM
Cc1cc(C)n2nc(C(=O)Nc3cccnc3)cc2n1	150 nM
CCN(CC)c1ccc2cc(C(=O)c3cccs3)c(=O)oc2c1	< 80 nM

Give the measured AC50 of Cc1ccc(/C=C(\CCCC(=O)O)c2nc3ccccc3s2)cc1[N+](=O)[O-] .
953 nM

----------
Molecular target: Mycobacterium tuberculosis BioA (adenosylmethionine-8-amino-7-oxononanoate aminotransferase)
Assay: inhibition of M. tuberculosis BioA aminotransferase – biochemical, plate reader, dry powder samples, dose response (AID 720590)
Details: M. tuberculosis BioA enzyme assay
The source made the active and inactive calls. How the calls were made is not given here.
Returns: one label drawn from class 1 for active, class 0 for inactive

Sample answers from the record:
Smiles record	Answer label
CC(=O)c1ccc(N2CCN(C(=O)c3ccc(C)cc3)CC2)cc1	class 1
CC(=O)c1ccc(N2CCN(C(=O)c3ccccc3)CC2)cc1	class 1
O=C(Nc1cccnc1)c1cc2nc(-c3cccs3)cc(C(F)(F)F)n2n1	class 1
CC(=O)c1ccc(N2CCN(C(=O)c3ccc(F)cc3)CC2)cc1	class 1
CC(=O)c1ccc(N2CCN(C(=O)c3cccnc3)CC2)cc1	class 1

Okay, now this compound:
Per the records of this test, what outcome belongs to O=C(O)CC/C(=C\c1ccccc1[N+](=O)[O-])c1nc2ccccc2s1 ?
class 0

----------
Target: Mycobacterium tuberculosis BioA (adenosylmethionine-8-amino-7-oxononanoate aminotransferase)
Assay: inhibition of M. tuberculosis BioA aminotransferase – biochemical, plate reader, dry powder samples, dose response (AID 720590)
Conditions: M. tuberculosis BioA enzyme assay
Active and inactive are the calls of the source. How the calls were made is not given here.
Please reply with one of these outcomes: active, inactive

Below are worked cases with known answers.
Compound	Answer label
CC(=O)c1ccc(N2CCN(C(=O)c3ccc(Cl)cc3)CC2)cc1	active
COC(=O)c1c(C(=O)OC)c(-c2cccc(F)c2)n2c1CS(=O)C2 (configuration not stated)	active
Cc1ccccc1/C=C(\CCC(=O)O)c1nc2ccccc2s1	active
Cc1ccc(-c2cc(C(F)(F)F)n3nc(C(=O)Nc4cccnc4)cc3n2)cc1	active
CC(=O)c1ccc(N2CCN(C(=O)c3ccc4c(c3)OCCO4)CC2)cc1	active

What call does the record list for COc1cccc(C(=O)N2CCN(c3ccc(C(C)=O)cc3)CC2)c1 ?
active

Continue with O=C(c1ccc2c(c1)OCO2)N1CCN(c2ccccc2)CC1
inactive

Can you check COc1ccc(C(=O)N2CCN(c3ccc(C(C)=O)cc3)CC2)cc1 next?
active

Same question, O=C(O)CC/C(=C\c1ccc([N+](=O)[O-])cc1)c1nc2ccccc2s1 this time
active

Now consider COc1cc(/C=C/C(=O)Nc2cccnc2)cc(OC)c1OC .
active

Repeat with COc1cccc(NC(=O)N2CCN(c3ccccc3)CC2)c1
inactive

Cool, now Cc1ccc(/C=C(\CCC(=O)O)c2nc3ccccc3s2)cc1[N+](=O)[O-]
active

Lookup Cc1cc(C)n2nc(C(=O)Nc3cccnc3)nc2n1
active

Input COc1ccc(-c2cc(C(F)(F)F)n3nc(C(=O)Nc4cccnc4)cc3n2)cc1
active

Similarly, CC(=O)c1ccc(N2CCN(Cc3ccc4c(c3)OCO4)CC2)cc1 ?
active

----------
Target: Mycobacterium tuberculosis BioA (adenosylmethionine-8-amino-7-oxononanoate aminotransferase)
Assay: inhibition of M. tuberculosis BioA aminotransferase – biochemical, plate reader, dry powder samples, dose response (AID 720590)
Conditions: M. tuberculosis BioA enzyme assay
Calls of active or inactive are those of the source. How the calls were made is not given here.
The reply should name one outcome from active, inactive

// below: answered molecules
Smiles record	Answer label
O=C(Nc1cccnc1)c1cnn2c(C(F)F)cc(C3CC3)nc12	active
O=C(c1ccc2c(c1)OCO2)N1CCN(c2ccc(Cl)cc2)CC1	active
Cc1ccc(/C=C(\CCC(=O)O)c2nc3ccccc3s2)cc1	active
O=C(Nc1cccc(F)c1)N1CCN(c2ccccc2)CC1	active
CCc1ccc(N2CCN(C(=O)c3ccc4c(c3)OCO4)CC2)cc1	inactive

Record request — test call for CC(=O)c1ccc(N2CCN(C(=O)c3cccc(F)c3)CC2)cc1
active

Another: O=C(COc1ccc2ccc(=O)oc2c1)N1CCN(c2ccc(F)cc2)CC1
active
